Reported values of Ragweed plant response rating (0 to 100 scale) for individual entries
# Test system: ragweed (common ragweed, Ambrosia elation)
# procedure_details: Test A preemergence, directed soil spray, visual injury rating
# Type: in vivo
# applied_conditions: 500 g ai/ha, approx. 10 d, 0 = no effect, 100 = complete control
Write the value as a bare number.

Previously resolved entries follow.
Cc1nnc2n1CC(c1ccc(Cl)cc1)C2C(=O)Nc1ccccc1F (stereo not drawn) [Compound 21] : 0
CCCc1nnc2n1CC(c1ccc(C(F)(F)F)cc1)C2C(=O)Nc1cccc(F)c1F (stereo not drawn) [Compound 17] : 0
CCc1nnc2n1CC(c1ccc(C(F)(F)F)cc1)C2C(=O)Nc1cccc(F)c1F (stereo not drawn) [Compound 8] : 0
Cc1ccc(C2Cn3cnnc3C2C(=O)Nc2cccc(F)c2F)cc1C (stereo not drawn) [Compound 16] : 50
O=C(Nc1ccccc1F)C1C2=NCC(=O)N2CC1c1cccc(C(F)(F)F)c1 (stereo not drawn) [Compound 3] : 0

stdin: State its Ragweed plant response rating (0 to 100 scale): CCc1ccc(C2Cn3cnnc3C2C(=O)Nc2cccc(F)c2F)cc1 (stereo not drawn) [Compound 11]
stdout: 40

stdin: State its Ragweed plant response rating (0 to 100 scale): CCc1ccc(C2Cn3c(C)nnc3C2C(=O)Nc2ccccc2SC)cc1 (stereo not drawn) [Compound 15]
stdout: 0

stdin: State its Ragweed plant response rating (0 to 100 scale): Cc1nnc2n1CC(c1ccc(C(F)(F)F)cc1)C2C(=O)Nc1ccccc1C(F)(F)F (stereo not drawn) [Compound 6]
stdout: 0

stdin: State its Ragweed plant response rating (0 to 100 scale): CSc1ccccc1NC(=O)C1c2nnc(C)n2CC1c1ccc(C)c(C)c1 (stereo not drawn) [Compound 14]
stdout: 0

---

# Test system: blackgrass (Alopecurus myosuroides)
# procedure_details: Test A postemergence application, visual injury rating
# Type: in vivo
# applied_conditions: 500 g ai/ha, approx. 10 d, 0 = no effect, 100 = complete control
Use fulfilled when the recorded Blackgrass plant response rating (0 to 100 scale) is no lower than 20; use not fulfilled when it is lower.

Example entries begin here.
O=C(Nc1ccccc1F)C1c2nncn2CC1c1ccc(Cl)cc1 (stereo not shown) : not fulfilled
Cc1ccc(C2Cn3c(C)nnc3C2C(=O)Nc2cccc(F)c2F)cc1C (stereo not shown) : fulfilled
CCc1ccc(C2Cn3cnnc3C2C(=O)Nc2cccc(F)c2C)cc1 (stereo not shown) : fulfilled

stdin: Form field: Blackgrass plant response rating (0 to 100 scale) at least 20? Entry: CCc1ccc(C2Cn3cnnc3C2C(=O)Nc2ccccc2SC)cc1 (stereo not shown)
stdout: not fulfilled

stdin: Form field: Blackgrass plant response rating (0 to 100 scale) at least 20? Entry: CCc1nnc2n1CC(c1ccc(C(F)(F)F)cc1)C2C(=O)Nc1cccc(F)c1F (stereo not shown)
stdout: not fulfilled

stdin: Form field: Blackgrass plant response rating (0 to 100 scale) at least 20? Entry: Cc1ccc(C2Cn3cnnc3C2C(=O)Nc2cccc(F)c2F)cc1C (stereo not shown)
stdout: fulfilled

stdin: Form field: Blackgrass plant response rating (0 to 100 scale) at least 20? Entry: CCc1ccc(C2Cn3c(C)nnc3C2C(=O)Nc2cccc(F)c2C)cc1 (stereo not shown)
stdout: fulfilled

stdin: Form field: Blackgrass plant response rating (0 to 100 scale) at least 20? Entry: CCc1ccc(C2Cn3c(C)nnc3C2C(=O)Nc2ccccc2SC)cc1 (stereo not shown)
stdout: not fulfilled

stdin: Form field: Blackgrass plant response rating (0 to 100 scale) at least 20? Entry: O=C(Nc1ccccc1F)C1C2=NCCCN2CC1c1cccc(C(F)(F)F)c1 (stereo not shown)
stdout: not fulfilled

stdin: Form field: Blackgrass plant response rating (0 to 100 scale) at least 20? Entry: O=C(Nc1cccc(F)c1F)C1c2nnc(C(F)(F)F)n2CC1c1ccc(C(F)(F)F)cc1 (stereo not shown)
stdout: not fulfilled

stdin: Form field: Blackgrass plant response rating (0 to 100 scale) at least 20? Entry: Cc1ccc(C2Cn3c(C)nnc3C2C(=O)Nc2cccc(F)c2C)cc1C (stereo not shown)
stdout: fulfilled

---

# Test system: barnyardgrass (Echinochloa crus-galli)
# procedure_details: Test A preemergence, directed soil spray, visual injury rating
# Format: in vivo
# applied_conditions: 125 g ai/ha, approx. 10 d, 0 = no effect, 100 = complete control
Use yes (1) when the recorded Barnyardgrass plant response rating (0 to 100 scale) is no lower than 20; use no (0) when it is lower.

Example entries begin here.
O=C(Nc1ccccc1F)C1c2nncn2CC1c1cccc(C(F)(F)F)c1 (stereo not drawn) : yes (1)
CCCc1nnc2n1CC(c1ccc(C(F)(F)F)cc1)C2C(=O)Nc1cccc(F)c1F (stereo not drawn) : no (0)

stdin: Form field: Barnyardgrass plant response rating (0 to 100 scale) at least 20? Entry: O=C(Nc1cccc(F)c1F)C1c2nncn2CC1c1ccc(Cl)cc1 (stereo not drawn)
stdout: yes (1)

stdin: Form field: Barnyardgrass plant response rating (0 to 100 scale) at least 20? Entry: O=C(Nc1ccccc1F)C1C2=NCC(=O)N2CC1c1cccc(C(F)(F)F)c1 (stereo not drawn)
stdout: no (0)

stdin: Form field: Barnyardgrass plant response rating (0 to 100 scale) at least 20? Entry: Cc1nnc2n1CC(c1ccc(C(F)(F)F)cc1)C2C(=O)Nc1ccccc1F (stereo not drawn)
stdout: no (0)

stdin: Form field: Barnyardgrass plant response rating (0 to 100 scale) at least 20? Entry: CCc1ccc(C2Cn3cnnc3C2C(=O)Nc2cccc(F)c2F)cc1 (stereo not drawn)
stdout: yes (1)

---

# System: blackgrass (Alopecurus myosuroides)
# procedure_details: Test A postemergence application, visual injury rating
# Type: in vivo
# applied_conditions: 500 g ai/ha, approx. 10 d, 0 = no effect, 100 = complete control
measurement_type: Blackgrass plant response rating (0 to 100 scale)

Previously resolved entries follow.
CSc1ccccc1NC(=O)C1c2nnc(C)n2CC1c1ccc(C)c(C)c1 (stereo not drawn) : 20
Cc1ccc(C2Cn3cnnc3C2C(=O)Nc2cccc(F)c2C)cc1C (stereo not drawn) : 50

stdin: State its Blackgrass plant response rating (0 to 100 scale): Cc1nnc2n1CC(c1ccc(C(F)(F)F)cc1)C2C(=O)Nc1ccccc1C(F)(F)F (stereo not drawn)
stdout: 20

stdin: State its Blackgrass plant response rating (0 to 100 scale): Cc1nnc2n1CC(c1ccc(C(F)(F)F)cc1)C2C(=O)Nc1ccccc1F (stereo not drawn)
stdout: 50

stdin: State its Blackgrass plant response rating (0 to 100 scale): CSc1ccccc1NC(=O)C1c2nncn2CC1c1ccc(C)c(C)c1 (stereo not drawn)
stdout: 0

stdin: State its Blackgrass plant response rating (0 to 100 scale): O=C(Nc1cccc(F)c1F)C1c2nncn2CC1c1ccc(Cl)cc1 (stereo not drawn)
stdout: 0

stdin: State its Blackgrass plant response rating (0 to 100 scale): O=C(Nc1ccccc1F)C1C2=NCC(=O)N2CC1c1cccc(C(F)(F)F)c1 (stereo not drawn)
stdout: 0

stdin: State its Blackgrass plant response rating (0 to 100 scale): CCc1ccc(C2Cn3c(C)nnc3C2C(=O)Nc2cccc(F)c2F)cc1 (stereo not drawn)
stdout: 20

stdin: State its Blackgrass plant response rating (0 to 100 scale): Cc1ccc(C2Cn3cnnc3C2C(=O)Nc2ccccc2F)cc1 (stereo not drawn)
stdout: 40

---

# Test system: kochia (Kochia scoparia)
# procedure_details: Test A postemergence application, visual injury rating
# Type: in vivo
# applied_conditions: 500 g ai/ha, approx. 10 d, 0 = no effect, 100 = complete control
Reported values of Kochia plant response rating (0 to 100 scale) for individual entries
Write the value as a bare number.

Previously resolved entries follow.
CCc1ccc(C2Cn3cnnc3C2C(=O)Nc2cccc(F)c2F)cc1 (stereo not shown) [Compound 11] : 50
Cc1ccc(C2Cn3cnnc3C2C(=O)Nc2cccc(F)c2C)cc1C (stereo not shown) [Compound 26] : 0
Cc1nnc2n1CC(c1ccc(C(F)(F)F)cc1)C2C(=O)Nc1ccccc1F (stereo not shown) [Compound 24] : 0
CSc1ccccc1NC(=O)C1c2nnc(C)n2CC1c1ccc(C)c(C)c1 (stereo not shown) [Compound 14] : 0

stdin: Report Kochia plant response rating (0 to 100 scale) on kochia (Kochia scoparia) for this entry: Cc1ccc(C2Cn3cnnc3C2C(=O)Nc2ccccc2F)cc1 (stereo not shown) [Compound 13]
stdout: 30

stdin: Report Kochia plant response rating (0 to 100 scale) on kochia (Kochia scoparia) for this entry: CCc1ccc(C2Cn3cnnc3C2C(=O)Nc2ccccc2SC)cc1 (stereo not shown) [Compound 25]
stdout: 30

stdin: Report Kochia plant response rating (0 to 100 scale) on kochia (Kochia scoparia) for this entry: O=C(Nc1cccc(F)c1F)C1c2nncn2CC1c1ccc(C(F)(F)F)cc1 (stereo not shown) [Compound 12]
stdout: 60

stdin: Report Kochia plant response rating (0 to 100 scale) on kochia (Kochia scoparia) for this entry: O=C(Nc1ccccc1F)C1c2nncn2CC1c1ccc(Cl)cc1 (stereo not shown) [Compound 20]
stdout: 40

stdin: Report Kochia plant response rating (0 to 100 scale) on kochia (Kochia scoparia) for this entry: O=C(Nc1cccc(F)c1F)C1c2nncn2CC1c1ccc(Cl)cc1 (stereo not shown) [Compound 7]
stdout: 40

stdin: Report Kochia plant response rating (0 to 100 scale) on kochia (Kochia scoparia) for this entry: CCCc1nnc2n1CC(c1ccc(C(F)(F)F)cc1)C2C(=O)Nc1cccc(F)c1F (stereo not shown) [Compound 17]
stdout: 50

stdin: Report Kochia plant response rating (0 to 100 scale) on kochia (Kochia scoparia) for this entry: O=C(Nc1ccccc1F)C1c2nccn2CC1c1cccc(C(F)(F)F)c1 (stereo not shown) [Compound 4]
stdout: 0

stdin: Report Kochia plant response rating (0 to 100 scale) on kochia (Kochia scoparia) for this entry: Cc1nnc2n1CC(c1ccc(C(F)(F)F)cc1)C2C(=O)Nc1ccccc1C(F)(F)F (stereo not shown) [Compound 6]
stdout: 0

stdin: Report Kochia plant response rating (0 to 100 scale) on kochia (Kochia scoparia) for this entry: CCc1ccc(C2Cn3c(C)nnc3C2C(=O)Nc2cccc(F)c2F)cc1 (stereo not shown) [Compound 23]
stdout: 30

stdin: Report Kochia plant response rating (0 to 100 scale) on kochia (Kochia scoparia) for this entry: Cc1ccc(C2Cn3cnnc3C2C(=O)Nc2cccc(F)c2F)cc1C (stereo not shown) [Compound 16]
stdout: 30

stdin: Report Kochia plant response rating (0 to 100 scale) on kochia (Kochia scoparia) for this entry: CCc1ccc(C2Cn3c(C)nnc3C2C(=O)Nc2ccccc2SC)cc1 (stereo not shown) [Compound 15]
stdout: 0

stdin: Report Kochia plant response rating (0 to 100 scale) on kochia (Kochia scoparia) for this entry: Cc1ccc(C2Cn3c(C)nnc3C2C(=O)Nc2ccccc2F)cc1 (stereo not shown) [Compound 27]
stdout: 0

stdin: Report Kochia plant response rating (0 to 100 scale) on kochia (Kochia scoparia) for this entry: Cc1nnc2n1CC(c1ccc(Cl)cc1)C2C(=O)Nc1ccccc1F (stereo not shown) [Compound 21]
stdout: 0

stdin: Report Kochia plant response rating (0 to 100 scale) on kochia (Kochia scoparia) for this entry: O=C(Nc1ccccc1F)C1c2nncn2CC1c1cccc(C(F)(F)F)c1 (stereo not shown) [Compound 2]
stdout: 30

stdin: Report Kochia plant response rating (0 to 100 scale) on kochia (Kochia scoparia) for this entry: Cc1ccc(C2Cn3c(C)nnc3C2C(=O)Nc2cccc(F)c2F)cc1C (stereo not shown) [Compound 19]
stdout: 20
